meta.source: patent US9481676B2

Give measured inhibition at 1 µM for each item. Keep answers brief.
system.name: human recombinant serotonin (5-Hydroxytryptamine) 5-HT2C receptor (Homo sapiens, UniProt P28335)
Construct: expressed in transfected cells; host or cells: CHO-K1 cells
Sequence (P28335 33-458): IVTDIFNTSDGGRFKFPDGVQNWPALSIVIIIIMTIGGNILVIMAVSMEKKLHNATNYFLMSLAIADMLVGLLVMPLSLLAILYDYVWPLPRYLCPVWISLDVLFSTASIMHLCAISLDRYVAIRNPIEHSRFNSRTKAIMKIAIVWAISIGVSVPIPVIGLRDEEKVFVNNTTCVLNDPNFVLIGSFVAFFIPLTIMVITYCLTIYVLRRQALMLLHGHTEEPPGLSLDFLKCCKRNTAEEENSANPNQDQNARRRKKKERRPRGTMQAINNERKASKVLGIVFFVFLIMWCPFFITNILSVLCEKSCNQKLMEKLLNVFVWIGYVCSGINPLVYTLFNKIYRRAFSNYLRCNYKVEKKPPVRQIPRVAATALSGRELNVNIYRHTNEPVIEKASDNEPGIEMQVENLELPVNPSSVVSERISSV
assay.explanation: Serotonin 5-HT2C radioligand binding ([3H]Mesulergine)
assay.setup: compound at 1 μM; read-out: Serotonin (1 μM) 5-HT2C, percent inhibition of specific binding
Form entry: value (%) — number only.

Query :: Would you kindly share the measured inhibition at 1 µM for Cc1ccc2c(c1)c1c(n2CCc2cncc(Cl)c2)CCN(C)CC1 ?
Result :: 89

Query :: Could you tell me which inhibition at 1 µM is on file for Cc1ccc2c(c1)c1c(n2CC(C)(O)c2ccc(F)cc2)CCN(C)CC1 (stereo not shown) ?
Result :: 95

Query :: Would you kindly share the measured inhibition at 1 µM for COc1ccc(C(O)Cn2c3c(c4cc(Cl)ccc42)CCN(C)CC3)c(F)c1 (stereo not shown) ?
Result :: 98

Query :: For the compound shown here, Cc1ccc2c(c1)c1c(n2CC(O)c2ccc(Cl)cc2)CCN(C)CC1 (stereo not shown) , give the reported inhibition at 1 µM.
Result :: 93

Query :: Suppose we examine the compound CN1CCc2c(n(/C=C/c3ccccc3)c3ccc(Cl)cc23)CC1 ; what inhibition at 1 µM value has been reported?
Result :: 97

Query :: I'd like to know its inhibition at 1 µM. The compound in question is CN1CCc2c(n(CC(=O)OCc3ccccc3)c3ccc(Cl)cc23)CC1
Result :: 13

Query :: Endpoint output: inhibition at 1 µM of C/C(=C\n1c2c(c3cc(Cl)ccc31)CCN(C)CC2)c1ccccc1F . Value?
Result :: 102
